# test protocol: chemical genetic growth profiling, strain panel (AID 1159580);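 also: tested at 20 µM; growth read once vehicle control cultures reached saturation at 30 °C; lower values mean less growth of the strain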
# conditions: S. cerevisiae deletion strains, growth OD, locus YEL061C, strain CIN8
The campaign covered roughly 5,500 compounds. About 2,000 (36%) were called active. Another 18% or so got no clear call; they are omitted. Rule as the data show it: active = normalized growth mostly below about 0.91 (no sharp cut-off); inconclusive = no clear call, values can overlap the other calls; inactive = mostly above about 0.92. Some of the results follow.
Classes used: active, inactive

[
  {
    "compound": "CC(=O)O[C@H]1C[C@@H](OC(C)=O)C(C)(C)C2C[C@@H](OC(C)=O)[C@]3(C)C(CC[C@@]4(C)[C@H](c5ccoc5)OC(=O)[C@H]5O[C@]543)[C@]21C (stereo partly specified)",
    "label": "inactive"
  },
  {
    "compound": "NCC[C@@H](O)C(=O)N[C@@H]1C[C@H](N)[C@@H](O[C@H]2O[C@H](CN)[C@@H](O)[C@H](O)[C@H]2O)[C@H](O)[C@H]1O[C@H]1O[C@H](CO)[C@@H](O)[C@H](N)C1O (stereo partly specified)",
    "label": "inactive"
  },
  {
    "compound": "COc1ccc2c(c1)OCC(Cc1ccc(OC)c(OC)c1)C2=O (stereo unspecified)",
    "label": "inactive"
  },
  {
    "compound": "O=c1oc2ccccc2cc1[N+](=O)[O-]",
    "label": "active"
  },
  {
    "compound": "Cc1nn(Cc2ccccc2Cl)c(=N)s1",
    "label": "inactive"
  },
  {
    "compound": "COc1ccc2c(c1)OCC(Cc1ccc(OC)c(OC(C)=O)c1)C2=O (stereo unspecified)",
    "label": "inactive"
  },
  {
    "compound": "COC1=CC(=O)OC(CCc2ccc(OC)c(OC)c2)C1 (stereo unspecified)",
    "label": "inactive"
  },
  {
    "compound": "CC(=O)c1ccc(N2C(=O)CSCC2=O)cc1",
    "label": "inactive"
  },
  {
    "compound": "Cc1nnc(NS(=O)(=O)c2ccc(N)cc2)s1",
    "label": "inactive"
  },
  {
    "compound": "O=C1CSCC(=O)N1c1ccc(F)c(Cl)c1",
    "label": "inactive"
  },
  {
    "compound": "CCOC(=O)c1ccc(Oc2sccc2[N+](=O)[O-])cc1",
    "label": "active"
  }
]
